Listed below: protein stability index values for each entry.
System: Saccharomyces cerevisiae
Assay: protein stability index of tFT-peptide fusion (C-terminal peptide) (PSI (0-1 scale)); higher = more stable (slower turnover)
Conditions: genetic background: wild type; temperature: 30 C
measure: protein stability index

[
  {
    "biopolymerSequence": "SAGAPRMPARGG",
    "endpointResult": 0.691
  },
  {
    "biopolymerSequence": "GGDVHGEGNVCG",
    "endpointResult": 0.698
  },
  {
    "biopolymerSequence": "GRCGGPRSLGVG",
    "endpointResult": 0.547
  },
  {
    "biopolymerSequence": "CVGRPIALAVRT",
    "endpointResult": 0.511
  },
  {
    "biopolymerSequence": "PSLCFLPPPPSP",
    "endpointResult": 0.686
  },
  {
    "biopolymerSequence": "KKKKTKKKKINI",
    "endpointResult": 0.605
  },
  {
    "biopolymerSequence": "SDKDIYQRLSYE",
    "endpointResult": 0.643
  },
  {
    "biopolymerSequence": "SPTPHTLRLLPT",
    "endpointResult": 0.662
  },
  {
    "biopolymerSequence": "PPRPPPPPSPPL",
    "endpointResult": 0.745
  },
  {
    "biopolymerSequence": "TRPLIRRRHWID",
    "endpointResult": 0.697
  },
  {
    "biopolymerSequence": "GARGIHSVRVRR",
    "endpointResult": 0.713
  },
  {
    "biopolymerSequence": "AFCVSVLVGLGG",
    "endpointResult": 0.487
  },
  {
    "biopolymerSequence": "SLPLSSALFPPL",
    "endpointResult": 0.72
  },
  {
    "biopolymerSequence": "VRLELIRSKLSR",
    "endpointResult": 0.701
  },
  {
    "biopolymerSequence": "RESRGAGGGEGG",
    "endpointResult": 0.667
  },
  {
    "biopolymerSequence": "PPPLAPPSVPCS",
    "endpointResult": 0.604
  },
  {
    "biopolymerSequence": "FFAPSRLHHLSL",
    "endpointResult": 0.772
  },
  {
    "biopolymerSequence": "LAPPLPMPPPLA",
    "endpointResult": 0.682
  },
  {
    "biopolymerSequence": "GVRGCGMTADVF",
    "endpointResult": 0.668
  },
  {
    "biopolymerSequence": "NLEVNFKNIYVK",
    "endpointResult": 0.679
  },
  {
    "biopolymerSequence": "VVTFSRSDIVLR",
    "endpointResult": 0.694
  },
  {
    "biopolymerSequence": "RRSTIHSRLFGA",
    "endpointResult": 0.679
  },
  {
    "biopolymerSequence": "GCGARSVQSLGD",
    "endpointResult": 0.707
  },
  {
    "biopolymerSequence": "IFFSLFFFFLCN",
    "endpointResult": 0.35
  },
  {
    "biopolymerSequence": "MPSRTYPSPPLG",
    "endpointResult": 0.693
  },
  {
    "biopolymerSequence": "VSSAGRPRGFLP",
    "endpointResult": 0.671
  },
  {
    "biopolymerSequence": "LGVVLFCFRFCR",
    "endpointResult": 0.477
  },
  {
    "biopolymerSequence": "RLVTSCSAAGSG",
    "endpointResult": 0.671
  },
  {
    "biopolymerSequence": "RVYFGRPRSIVL",
    "endpointResult": 0.656
  },
  {
    "biopolymerSequence": "LLIFFFSSSCPL",
    "endpointResult": 0.536
  },
  {
    "biopolymerSequence": "LGVPKDALKMMS",
    "endpointResult": 0.685
  },
  {
    "biopolymerSequence": "PGTLLHPLSVGR",
    "endpointResult": 0.668
  },
  {
    "biopolymerSequence": "AMGIPLLTTHFI",
    "endpointResult": 0.674
  },
  {
    "biopolymerSequence": "IRRSVVRCLFTE",
    "endpointResult": 0.707
  },
  {
    "biopolymerSequence": "WACAWRGMVKVG",
    "endpointResult": 0.156
  },
  {
    "biopolymerSequence": "LGVNYWIYSPHG",
    "endpointResult": 0.689
  },
  {
    "biopolymerSequence": "PGPPTPPPPLYP",
    "endpointResult": 0.706
  },
  {
    "biopolymerSequence": "SLRPALSFLPLP",
    "endpointResult": 0.716
  },
  {
    "biopolymerSequence": "GGGVGRLAGLLG",
    "endpointResult": 0.693
  },
  {
    "biopolymerSequence": "HMLVCPLAALGI",
    "endpointResult": 0.688
  },
  {
    "biopolymerSequence": "GYHRGLSHVLED",
    "endpointResult": 0.694
  }
]

---

Test system: Saccharomyces cerevisiae;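 further: PSI is a weighted mean of sequencing reads over stability bins, variants kept only with over 10 reads, mCherry proximal and sfGFP distal, peptide attached via GGGS linker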
Assay: protein stability index of tFT-peptide fusion (C-terminal peptide) (PSI (0-1 scale)); higher = more stable (slower turnover)
Details: genetic background: wild type; temperature: 30 C
# binarize protein stability index: threshold 0.7 inclusive, high side Met, low side Not met

[
  {
    "biopolymerSequence": "DINHTSKKKIYI",
    "measuredTarget": "Saccharomyces cerevisiae",
    "assignedCategory": "Not met"
  },
  {
    "biopolymerSequence": "AVVVDWLAQVLH",
    "measuredTarget": "Saccharomyces cerevisiae",
    "assignedCategory": "Met"
  },
  {
    "biopolymerSequence": "RILIRVQSSKLR",
    "measuredTarget": "Saccharomyces cerevisiae",
    "assignedCategory": "Not met"
  },
  {
    "biopolymerSequence": "VFIPFGFCLCFV",
    "measuredTarget": "Saccharomyces cerevisiae",
    "assignedCategory": "Not met"
  },
  {
    "biopolymerSequence": "WLVSPPTPFPLP",
    "measuredTarget": "Saccharomyces cerevisiae",
    "assignedCategory": "Not met"
  },
  {
    "biopolymerSequence": "RSQIHEILLYLF",
    "measuredTarget": "Saccharomyces cerevisiae",
    "assignedCategory": "Not met"
  },
  {
    "biopolymerSequence": "FKFGVFDFRFLC",
    "measuredTarget": "Saccharomyces cerevisiae",
    "assignedCategory": "Not met"
  },
  {
    "biopolymerSequence": "FFMNGLWGLSVR",
    "measuredTarget": "Saccharomyces cerevisiae",
    "assignedCategory": "Not met"
  },
  {
    "biopolymerSequence": "PLLLHHPPPRVP",
    "measuredTarget": "Saccharomyces cerevisiae",
    "assignedCategory": "Not met"
  },
  {
    "biopolymerSequence": "KTNIKKQSKISK",
    "measuredTarget": "Saccharomyces cerevisiae",
    "assignedCategory": "Met"
  },
  {
    "biopolymerSequence": "LFWTWVLVGVSV",
    "measuredTarget": "Saccharomyces cerevisiae",
    "assignedCategory": "Not met"
  },
  {
    "biopolymerSequence": "CFSVFSVLCFFV",
    "measuredTarget": "Saccharomyces cerevisiae",
    "assignedCategory": "Not met"
  },
  {
    "biopolymerSequence": "VGHRGVQAGGVG",
    "measuredTarget": "Saccharomyces cerevisiae",
    "assignedCategory": "Not met"
  },
  {
    "biopolymerSequence": "LCTCFLVLLLWC",
    "measuredTarget": "Saccharomyces cerevisiae",
    "assignedCategory": "Not met"
  },
  {
    "biopolymerSequence": "GSNQRRKGEHKP",
    "measuredTarget": "Saccharomyces cerevisiae",
    "assignedCategory": "Not met"
  },
  {
    "biopolymerSequence": "KAGDRRPDNHSN",
    "measuredTarget": "Saccharomyces cerevisiae",
    "assignedCategory": "Not met"
  },
  {
    "biopolymerSequence": "PPFLSPLRPPSL",
    "measuredTarget": "Saccharomyces cerevisiae",
    "assignedCategory": "Met"
  },
  {
    "biopolymerSequence": "YVWPKRRGLRVA",
    "measuredTarget": "Saccharomyces cerevisiae",
    "assignedCategory": "Not met"
  },
  {
    "biopolymerSequence": "PSTLLTFAISIP",
    "measuredTarget": "Saccharomyces cerevisiae",
    "assignedCategory": "Not met"
  },
  {
    "biopolymerSequence": "GSIVVVGVVEGG",
    "measuredTarget": "Saccharomyces cerevisiae",
    "assignedCategory": "Met"
  },
  {
    "biopolymerSequence": "EARLGGESSAWG",
    "measuredTarget": "Saccharomyces cerevisiae",
    "assignedCategory": "Not met"
  },
  {
    "biopolymerSequence": "YTAPIIGIGDDG",
    "measuredTarget": "Saccharomyces cerevisiae",
    "assignedCategory": "Not met"
  },
  {
    "biopolymerSequence": "TIELNLPPSVVR",
    "measuredTarget": "Saccharomyces cerevisiae",
    "assignedCategory": "Not met"
  },
  {
    "biopolymerSequence": "DTRNKHTKSKCQ",
    "measuredTarget": "Saccharomyces cerevisiae",
    "assignedCategory": "Met"
  },
  {
    "biopolymerSequence": "FSFLFSFFFSFL",
    "measuredTarget": "Saccharomyces cerevisiae",
    "assignedCategory": "Not met"
  },
  {
    "biopolymerSequence": "INIQKKKKIQHI",
    "measuredTarget": "Saccharomyces cerevisiae",
    "assignedCategory": "Not met"
  },
  {
    "biopolymerSequence": "FRVHSFRLSCLS",
    "measuredTarget": "Saccharomyces cerevisiae",
    "assignedCategory": "Not met"
  },
  {
    "biopolymerSequence": "ASKKSVVFKQKT",
    "measuredTarget": "Saccharomyces cerevisiae",
    "assignedCategory": "Not met"
  },
  {
    "biopolymerSequence": "LFAGTFTEYPLS",
    "measuredTarget": "Saccharomyces cerevisiae",
    "assignedCategory": "Not met"
  },
  {
    "biopolymerSequence": "EQSERGIQQGTN",
    "measuredTarget": "Saccharomyces cerevisiae",
    "assignedCategory": "Not met"
  },
  {
    "biopolymerSequence": "EVRCVFTGWHSS",
    "measuredTarget": "Saccharomyces cerevisiae",
    "assignedCategory": "Met"
  },
  {
    "biopolymerSequence": "NQDIKAENTIKL",
    "measuredTarget": "Saccharomyces cerevisiae",
    "assignedCategory": "Not met"
  },
  {
    "biopolymerSequence": "CPCAWFSFLCFS",
    "measuredTarget": "Saccharomyces cerevisiae",
    "assignedCategory": "Not met"
  },
  {
    "biopolymerSequence": "GLKVVENWIECA",
    "measuredTarget": "Saccharomyces cerevisiae",
    "assignedCategory": "Not met"
  },
  {
    "biopolymerSequence": "NVEARLARVHWM",
    "measuredTarget": "Saccharomyces cerevisiae",
    "assignedCategory": "Met"
  },
  {
    "biopolymerSequence": "ACRPRPPLSRSP",
    "measuredTarget": "Saccharomyces cerevisiae",
    "assignedCategory": "Met"
  },
  {
    "biopolymerSequence": "FCRKVFFALRRF",
    "measuredTarget": "Saccharomyces cerevisiae",
    "assignedCategory": "Not met"
  },
  {
    "biopolymerSequence": "GMGRVLVEVLLC",
    "measuredTarget": "Saccharomyces cerevisiae",
    "assignedCategory": "Not met"
  },
  {
    "biopolymerSequence": "THPPATSPPPYP",
    "measuredTarget": "Saccharomyces cerevisiae",
    "assignedCategory": "Not met"
  },
  {
    "biopolymerSequence": "FLFFLFVVFVFV",
    "measuredTarget": "Saccharomyces cerevisiae",
    "assignedCategory": "Not met"
  },
  {
    "biopolymerSequence": "VFVFRLYFCGCC",
    "measuredTarget": "Saccharomyces cerevisiae",
    "assignedCategory": "Not met"
  },
  {
    "biopolymerSequence": "SSPSSLPAPPSA",
    "measuredTarget": "Saccharomyces cerevisiae",
    "assignedCategory": "Not met"
  },
  {
    "biopolymerSequence": "GVVWMSCGGWWG",
    "measuredTarget": "Saccharomyces cerevisiae",
    "assignedCategory": "Met"
  },
  {
    "biopolymerSequence": "AFRRFLLYCRFI",
    "measuredTarget": "Saccharomyces cerevisiae",
    "assignedCategory": "Not met"
  },
  {
    "biopolymerSequence": "VAPPLAPSPPLP",
    "measuredTarget": "Saccharomyces cerevisiae",
    "assignedCategory": "Not met"
  },
  {
    "biopolymerSequence": "TRFLRCACCFVC",
    "measuredTarget": "Saccharomyces cerevisiae",
    "assignedCategory": "Not met"
  },
  {
    "biopolymerSequence": "KKKYKKNKKKNK",
    "measuredTarget": "Saccharomyces cerevisiae",
    "assignedCategory": "Not met"
  },
  {
    "biopolymerSequence": "GCQLLSEVSVCL",
    "measuredTarget": "Saccharomyces cerevisiae",
    "assignedCategory": "Not met"
  },
  {
    "biopolymerSequence": "GSGDRSGCGWRG",
    "measuredTarget": "Saccharomyces cerevisiae",
    "assignedCategory": "Not met"
  },
  {
    "biopolymerSequence": "LCRYFLRGVINT",
    "measuredTarget": "Saccharomyces cerevisiae",
    "assignedCategory": "Not met"
  }
]
